Target: UniProt:P0DTD1
Conditions: 20.0 µM
Parameter: inhibition. Scope: all listed entries.
// note: answer is a bare numeric in %

See these solved cases before continuing.
{"molecule": "C=CC(=O)N(c1ccc(C(C)OC)cc1)C(C(=O)Nc1ccc(OC)cc1C)c1cccnc1 (stereo unspecified)", "recorded metric": "inhibition", "readout number": 0}
{"molecule": "C=CC(=O)N(c1ccc(C(C)(C)C)cc1)C(C(=O)NC1CCCCC1)c1cccnc1 (stereo unspecified)", "recorded metric": "inhibition", "readout number": 0}
{"molecule": "NS(=O)(=O)c1ccc(N2CCC(c3ccco3)CC2)cc1", "recorded metric": "inhibition", "readout number": 45.9}
{"molecule": "CCC(C)(C)CCN(Cc1ccsc1)C(=O)Cn1nnc2ccccc21", "recorded metric": "inhibition", "readout number": -4.79}
{"molecule": "O=C(c1ccccc1)N1CCN(C(=O)C2CCOCC2)CC1", "recorded metric": "inhibition", "readout number": 0.98}

Exam item: Look up inhibition of O=C(NCCNc1ccnc2cc(Cl)ccc12)Nc1ccc(F)cc1 and report it.
Marked response: 0

Exam item: Look up inhibition of Cc1ccc(C)c(S(=O)(=O)N2CCN(C(=O)CCl)CC2)c1 and report it.
Marked response: 90.8

Exam item: Look up inhibition of Cc1ccccc1C(C(=O)NCC(O)Cn1ccnn1)c1ccccc1 (stereo unspecified) and report it.
Marked response: 0
